TEST PROTOCOL: Solubility testing of (Z)-endoxifen in single solvents
Format: physicochemical
PROTOCOL CONDITIONS: ethyl acetate, organic solvent or mixture, thermodynamic from solid, ethyl acetate, high temperature; read-out: Solubility
MEASURED METRIC: solubility

// query Query (molecule): CC/C(=C(\c1ccc(O)cc1)c1ccc(OCCNC)cc1)c1ccccc1 [(Z)-endoxifen] ; field requested: solubility
// result 20 to 100 mg/mL

* * *

TEST PROTOCOL: Solubility testing of (Z)-endoxifen in single solvents
Type: physicochemical
PROTOCOL CONDITIONS: methanol, 25 °C, organic solvent or mixture, thermodynamic from solid, solvent methanol; room temperature; read-out: Solubility at RT
MEASURED METRIC: solubility at 15 min

// query Query (compound): CC/C(=C(\c1ccc(O)cc1)c1ccc(OCCNC)cc1)c1ccccc1 [(Z)-endoxifen] ; field requested: solubility at 15 min
// result 17 to 20 mg/mL

* * *

TEST PROTOCOL: Stability of (Z)-Endoxifen in acetone (HPLC peak table over time)
Type: physicochemical
PROTOCOL CONDITIONS: acetone, 40° C., 28 hr
MEASURED METRIC: HPLC peak RT 22.68, RRT 1.39 (%)
Just the number in %, nothing appended.

// query Query (compound): CC/C(=C(\c1ccc(O)cc1)c1ccc(OCCNC)cc1)c1ccccc1 [(Z)-endoxifen] ; field requested: HPLC peak RT 22.68, RRT 1.39
// result 0.09

* * *

TEST PROTOCOL: Solvent mixture solubility tests of (Z)-endoxifen
Assay type: physicochemical
PROTOCOL CONDITIONS: acetone/ethyl acetate 50/50 v/v, organic solvent or mixture, thermodynamic from solid, acetone/ethyl acetate 50/50 v/v; 100 mg/mL; high temperature; read-out: Solubility HT (100 mg/mL): Sol. HT
MEASURED METRIC: solubility

// query Query (compound): CC/C(=C(\c1ccc(O)cc1)c1ccc(OCCNC)cc1)c1ccccc1 [(Z)-endoxifen] ; field requested: solubility
// result < 100 mg/mL

* * *

TEST PROTOCOL: Solubility testing of (Z)-endoxifen in single solvents
Format: physicochemical
PROTOCOL CONDITIONS: water, 100 °C, water, thermodynamic from solid, solvent water; 10 mg/mL; high temperature; read-out: Solubility HT (10 mg/mL): Sol. HT
MEASURED METRIC: solubility

// query Query (molecule): CC/C(=C(\c1ccc(O)cc1)c1ccc(OCCNC)cc1)c1ccccc1 [(Z)-endoxifen] ; field requested: solubility
// result < 10000 µg/mL

* * *

TEST PROTOCOL: Stability of (Z)-Endoxifen in acetone (HPLC peak table over time)
Assay type: physicochemical
PROTOCOL CONDITIONS: acetone at reflux (56° C.), T0
MEASURED METRIC: HPLC peak RT 20.32, RRT 1.34
Quick note: unit goes after the number.

// query Query (compound): CC/C(=C(\c1ccc(O)cc1)c1ccc(OCCNC)cc1)c1ccccc1 [(Z)-endoxifen] ; field requested: HPLC peak RT 20.32, RRT 1.34
// result 0.04%

* * *

TEST PROTOCOL: Solubility testing of (Z)-endoxifen in single solvents
Type: physicochemical
PROTOCOL CONDITIONS: 4-met-2-pentanone, 25 °C, organic solvent or mixture, thermodynamic from solid, 4-met-2-pentanone, room temperature; read-out: Solubility
Description: To test the solubility of (Z)-endoxifen in varying conditions, 10 mg of (Z)-endoxifen was added to a stoppered tube, and 0.01 ml of the selected solvent was added (1000 mg/ml solution). The tube was shaken vigorously for 1 minute and then incubated at a constant temperature of 25.0° C. for 15 minutes. If the solid was not completed dissolved, the tube was shaken again and placed at the constant temperature of 25.0° C. for another 15 minutes. […]
MEASURED METRIC: solubility at 15 min (µg/mL)
Just the number in µg/mL, nothing appended.

// query Query (molecule): CC/C(=C(\c1ccc(O)cc1)c1ccc(OCCNC)cc1)c1ccccc1 [(Z)-endoxifen] ; field requested: solubility at 15 min
// result 10000
